assay: Antiproliferative activity against VEGF-stimulated HUVEC cells assessed as reduction in cell viability at 10 nM preincubated for 1 hr followed by addition of VEGF measured after 72 hrs by MTT assay; format: functional; details: Homo sapiens
quantity: inhibition at 0.01 µM (%)
Output spec: scalar in %, unitless text.

Before answering, review these 3 worked examples.
molecule	inhibition at 0.01 µM [%]
CC1(C)OC(=O)CC1C(=O)Nc1cccc(Nc2ccc3c(/C=C/c4ccccc4)n[nH]c3c2)c1 (stereo not drawn)	16
CN1CCC=C(C(=O)Nc2cccc(Oc3ccc4c(/C=C/c5ccccc5)n[nH]c4c3)c2)C1	43
C[C@@]12C[C@H]3C[C@H]1C[C@@]3(C(=O)Nc1cccc(C(=O)c3ccc4c(/C=C/c5ccccc5)n[nH]c4c3)c1)C2	-1

Prompt: Dear colleague, I am looking for the recorded inhibition at 0.01 µM of the following molecule: CN1CSCCC1C(=O)Nc1cccc(Oc2ccc3c(/C=C/c4ccccc4)n[nH]c3c2)c1 (stereo not drawn)
Completion: 23

Prompt: Dear colleague, I am looking for the recorded inhibition at 0.01 µM of the following molecule: "C[C@@]12C[C@H]3C[C@H]1C[C@@]3(C(=O)Nc1cccc(Oc3ccc4c(/C=C/c5ccccc5)n[nH]c4c3)c1)C2"
Completion: 30

Prompt: Dear colleague, I am looking for the recorded inhibition at 0.01 µM of the following molecule: "O=C(Nc1cccc(C(=O)c2ccc3c(/C=C/c4ccccc4)n[nH]c3c2)c1)C1=C[C@@H](O)[C@@H](O)[C@H](O)C1"
Completion: -20

Prompt: Dear colleague, I am looking for the recorded inhibition at 0.01 µM of the following molecule: O=C(Nc1cccc(Nc2ccc3c(/C=C/c4ccccc4)n[nH]c3c2)c1)C1CCCO1 (stereo not drawn)
Completion: 23

Prompt: Dear colleague, I am looking for the recorded inhibition at 0.01 µM of the following molecule: "COc1cccc(CC(=O)Nc2cccc(Nc3ccc4c(/C=C/c5ccccc5)n[nH]c4c3)c2)c1"
Completion: 34

* * *

experiment: Antiproliferative activity against VEGF-stimulated HUVEC cells assessed as reduction in cell viability at 10 nM preincubated for 1 hr followed by addition of VEGF measured after 72 hrs by MTT assay; format: functional; conditions: Homo sapiens
inhibition at 0.01 µM overview
Output spec: scalar in %, unitless text.

compound	inhibition at 0.01 µM [%]
O=C(CCC(=O)N1CCCC1)Nc1cccc(C(=O)c2ccc3c(/C=C/c4ccccc4)n[nH]c3c2)c1	27

Prompt: Dear colleague, I am looking for the recorded inhibition at 0.01 µM of the following compound: "COc1ccc(C#N)c(C(=O)Nc2cccc(C(=O)c3ccc4c(/C=C/c5ccccc5)n[nH]c4c3)c2)c1"
Completion: -20

Prompt: Dear colleague, I am looking for the recorded inhibition at 0.01 µM of the following compound: "O=C(Nc1cccc(C(=O)c2ccc3c(/C=C/c4ccccc4)n[nH]c3c2)c1)c1ccc(=O)oc1"
Completion: -62

Prompt: Dear colleague, I am looking for the recorded inhibition at 0.01 µM of the following compound: "CC(=O)NC(C)(C)CC(=O)Nc1cccc(Nc2ccc3c(/C=C/c4ccccc4)n[nH]c3c2)c1"
Completion: -9

Prompt: Dear colleague, I am looking for the recorded inhibition at 0.01 µM of the following compound: "CC(=O)N1CCC[C@@H]1C(=O)Nc1cccc(Nc2ccc3c(/C=C/c4ccccc4)n[nH]c3c2)c1"
Completion: -5

Prompt: Dear colleague, I am looking for the recorded inhibition at 0.01 µM of the following compound: "CC(=O)N1CCC(C(=O)Nc2cccc(Oc3ccc4c(/C=C/c5ccccc5)n[nH]c4c3)c2)CC1"
Completion: 42

Prompt: Dear colleague, I am looking for the recorded inhibition at 0.01 µM of the following compound: "Cc1nc(S)sc1CC(=O)Nc1cccc(Oc2ccc3c(/C=C/c4ccccc4)n[nH]c3c2)c1"
Completion: 45

Prompt: Dear colleague, I am looking for the recorded inhibition at 0.01 µM of the following compound: O=C1NCC(C(=O)Nc2cccc(Nc3ccc4c(/C=C/c5ccccc5)n[nH]c4c3)c2)N1 (stereo not drawn)
Completion: 7
